Consider the following molecules; for each one, report its z-score.
- experiment-summary: basal RPMI8226 viability, no added stimulus, profiling panel, cell-based, calcein-AM fluorescence, 48 h, PK04 Diversity Set (AID 1166);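 also: cells grown under basal conditions without added stimulus; test concentration not given here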
- details: RPMI8226 myeloma viability, higher = more signal
// print number alone

## Task Any idea what its z-score is? The molecule is CC(C)=CCN(C(=O)C#Cc1ccccc1)[C@H](CO)c1ccccc1
## Result -4.1

## Task Any idea what its z-score is? The molecule is CN(C)CCCCNC(=O)[C@H]1C[C@H]2C(=O)N[C@@H](Cc3ccccc3)C(=O)N2[C@H]1c1cccc(OCCO)c1
## Result 0.826

## Task Any idea what its z-score is? The molecule is COCCOC(=O)N1C(=O)[C@@]2(c3ccccc31)[C@H](C(N)=O)[C@H]1C(=O)O[C@H](c3ccccc3)[C@H](c3ccccc3)N1[C@@H]2c1ccc(OCCO)cc1
## Result 0.711

## Task Any idea what its z-score is? The molecule is CCCC=C(CCC)[C@@H](NS(=O)(=O)c1ccc(Cl)cc1)c1ccccc1
## Result -3.77

## Task Any idea what its z-score is? The molecule is O=C1N(CCS(=O)(=O)c2ccccc2)c2ccccc2[C@@H]2OC(c3ccc(OCCCO)cc3)=N[C@]12CCS(=O)(=O)c1ccccc1
## Result -0.104

## Task Any idea what its z-score is? The molecule is C=CCOC(=O)[C@H]1[C@@H]2C(=O)O[C@@H](c3ccccc3)[C@@H](c3ccccc3)N2[C@@H](c2ccc(OCCOC(=O)[C@H]3C[C@H]4C(=O)NCC(=O)N4[C@H]3c3ccc(O)cc3)cc2)[C@]12C(=O)Nc1ccc(I)cc12
## Result 0.483

## Task Any idea what its z-score is? The molecule is CN1C(=O)C2C(C1=O)C1C=C(c3ccc(CO)cc3)C2C(c2cccs2)N1C (centres undefined)
## Result -0.996

## Task Any idea what its z-score is? The molecule is COc1ccc(CCNC(=O)[C@@]2(Sc3ccc(C)cc3)CC(=O)N(C(C)C)[C@@H]2c2ccc(CO)cc2)cc1
## Result 0.0991

## Task Any idea what its z-score is? The molecule is COCCOC(=O)N1C(=O)[C@@]2(c3cc(C#CCNC(N)=O)ccc31)[C@H](C(=O)NC[C@H](O)c1ccccc1)[C@H]1C(=O)O[C@H](c3ccccc3)[C@H](c3ccccc3)N1[C@@H]2c1ccc(OCCO)cc1
## Result 0.995

## Task Any idea what its z-score is? The molecule is CCC[C@@H]1[C@@H](Sc2ccccc2)[C@@H](C(=O)O)[C@H](c2ccc(C)cc2)N1S(=O)(=O)c1ccc(C)cc1
## Result -2.59

## Task Any idea what its z-score is? The molecule is NC(=O)[C@@]1(CCS(=O)(=O)c2ccccc2)COC(c2ccc(OCCCO)cc2)=N1
## Result 0.458

## Task Any idea what its z-score is? The molecule is C=CC[C@@]1(C(=O)N(C)C)N=C(c2ccc(OCCCO)cc2)O[C@@H]1c1ccccc1
## Result 0.127

## Task Any idea what its z-score is? The molecule is C=CCC(OC(C)=O)[C@@H]1[C@@H](N(Cc2ccc(-c3ccccc3)cc2)C(=O)c2ccc(C)cc2)c2cc(OCCCO)ccc2N1C(=O)c1ccc2ccccc2c1 (some centres undefined)
## Result -0.481

## Task Any idea what its z-score is? The molecule is COc1ccc(CCNC(=O)[C@@]2(Sc3ccc(C)cc3)CC(=O)N(Cc3cc(C(F)(F)F)cc(C(F)(F)F)c3)[C@@H]2c2ccc(CO)cc2)cc1
## Result -0.24

* * *

- experiment-summary: splicing luciferase reporter signal modulators, primary screen, spliceosome inhibition project, cell-based, HEK293, splice +/- reporter (AID 1101);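 also: HEK293 cells carrying a splicing-competent luciferase reporter gene; test concentration not given here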
- details: luminescence, 24 h, higher = more signal, called active from +8 up or from −8 down
Rule: z-score under -0.5 gives False, otherwise True.

## Task Evaluate CCCC=C(CCC)[C@@H](NC(=O)c1ccco1)c1ccc(C(=O)OC)cc1 : z-score at minimum -0.5?
## Result False

## Task Evaluate COc1ccccc1CN1C(=O)c2ccccc2[C@](Cc2ccccc2I)(C(=O)NCCCN(C)C)[C@@H]1c1ccc(CO)cc1 : z-score at minimum -0.5?
## Result False

## Task Evaluate COCCOC(=O)N1C(=O)[C@@]2(c3cc(C#CC4=CCCCC4)ccc31)[C@H](C(=O)N1CCc3cc(OC)c(OC)cc3C1)[C@H]1C(=O)O[C@H](c3ccccc3)[C@H](c3ccccc3)N1[C@@H]2c1ccc(O)cc1 : z-score at minimum -0.5?
## Result True

## Task Evaluate COc1cccc(OC)c1C(=O)O[C@H]1[C@@H]2OC(=O)[C@H](Cc3cccc(Br)c3)C/C=C/C[C@@H](Cc3cccc(Br)c3)C(=O)O[C@H]2[C@@H](OC)O[C@@H]1CO : z-score at minimum -0.5?
## Result True

## Task Evaluate O=C(NCCO)C1=C[C@H](Oc2ccccc2I)[C@@H](O)[C@H](NCc2ccc(F)cc2)C1 : z-score at minimum -0.5?
## Result False

## Task Evaluate COCCOC(=O)N1C(=O)[C@@]2(c3cc(C#CCC(C(=O)OC)C(=O)OC)ccc31)[C@H](c1ccc(OCCO)cc1)N1[C@H](c3ccccc3)[C@H](c3ccccc3)OC(=O)[C@H]1[C@@H]2C(=O)N1CCCCCCC1 : z-score at minimum -0.5?
## Result False

## Task Evaluate CN(C)CCCC[C@@H]1NC(=O)[C@@H]2C[C@H](C(=O)NCc3ccc(F)cc3)[C@H](c3ccc(O)cc3)N2C1=O : z-score at minimum -0.5?
## Result True

## Task Evaluate CCCCCCCCCCC(O)C1C=CC2C(=O)N(C)C(=O)C2N1N1CCCCC1 (stereo unspecified) : z-score at minimum -0.5?
## Result True

## Task Evaluate [N-]=[N+]=NCc1ccccc1C[C@]1(C(=O)NCc2ccccc2)N=C(c2ccc(OCCCO)cc2)O[C@H]1c1ccccc1CN=[N+]=[N-] : z-score at minimum -0.5?
## Result False

## Task Evaluate O=C1OCCC=C[C@H]2OC34C=CCN(c5ccc(Cl)cc5)C(=O)[C@H]3N(CCO)C(=O)[C@@H]4C12 (stereo partly specified) : z-score at minimum -0.5?
## Result True

## Task Evaluate CC(C)c1ccc(NN2C(C(O)C(C)C)C=CC3C(=O)N(c4ccccc4)C(=O)C32)cc1 (stereo unspecified) : z-score at minimum -0.5?
## Result True

## Task Evaluate CC(C)[C@@H](C(=O)O)n1cc(-c2ccccc2)nn1 : z-score at minimum -0.5?
## Result True

## Task Evaluate C=C(COC)C(=O)CC[C@@H](OC(=O)c1cccnc1)c1cccc(OCCO)c1 : z-score at minimum -0.5?
## Result True

## Task Evaluate CC(C)(C)N1CC=CC23O[C@@H]4/C=C\CCCOC(=O)C4[C@H]2C(=O)N(CCCCCCO)[C@@H]3C1=O (stereo partly specified) : z-score at minimum -0.5?
## Result False

## Task Evaluate CC(C)C(=C=CC[C@@H](O)c1ccccc1OCCO)C[C@@H](O)c1cc(Cl)cc(Cl)c1O : z-score at minimum -0.5?
## Result False

## Task Evaluate C=CCC(OC(C)=O)[C@@H]1[C@@H](N(Cc2ccc(-c3ccccc3)cc2)C(=O)c2ccc(C)cc2)c2cc(OCCCO)ccc2N1C(=O)c1ccc2ccccc2c1 (stereo partly specified) : z-score at minimum -0.5?
## Result False

* * *

- assay-target: Fibroblast growth factor 2 (Homo sapiens)
- experiment-summary: FGF2 binders on small-molecule microarrays, primary screen, biochemical, small-molecule microarray, 635/667 nm fluorescence (AID 1133)
- details: small-molecule microarray binding, FGF2, fluorescence 635/667; higher = more signal
experimental-endpoint: composite z-score
// print number alone

## Task Any idea what its composite z-score is? The compound is CC(=O)c1ccc(C(O)C2C=CC3C(=O)N(C)C(=O)C3N2NC(=O)OC(C)(C)C)cc1 (configuration not stated)
## Result 0.14

## Task Any idea what its composite z-score is? The compound is CCCCC=C[C@@H](NC(=O)c1ccc(C(F)(F)F)cc1)c1ccccc1
## Result -0.908

## Task Any idea what its composite z-score is? The compound is COCCOC(=O)N1C(=O)[C@@]2(c3cc(C#CCCO)ccc31)[C@H](C(=O)N1CCc3cc(OC)c(OC)cc3C1)[C@H]1C(=O)O[C@H](c3ccccc3)[C@H](c3ccccc3)N1[C@@H]2c1ccccc1OCCO
## Result 1.3

## Task Any idea what its composite z-score is? The compound is NC(=O)[C@@]1(CCS(=O)(=O)c2ccccc2)COC(c2ccc(OCCCO)cc2)=N1
## Result -0.0653

## Task Any idea what its composite z-score is? The compound is O=C1C2C=CC(C(O)c3ccc([N+](=O)[O-])cc3)N(Nc3ccccc3)C2C(=O)N1c1ccccc1 (configuration not stated)
## Result -0.239

## Task Any idea what its composite z-score is? The compound is C=CCC(OC(C)=O)[C@@H]1[C@@H](N(Cc2ccc(-c3ccccc3)cc2)C(=O)c2ccc(C)cc2)c2cc(OCCCO)ccc2N1C(=O)c1ccc2ccccc2c1 (some centres not stated)
## Result -0.0502

## Task Any idea what its composite z-score is? The compound is COC(=O)[C@@]1(Cc2ccc(OC)cc2)[C@H]2c3cc(C(=O)N4CCCC4)n(CCc4ccc(OC)c(Br)c4)c3C[C@H]2CN1C(=O)c1ccccc1
## Result -0.381
